Assay: Mouse pharmacokinetic study, IV vs oral (Example 18)
Format: in vivo, male CD-1 mice
Conditions: male, CD-1, mouse; PO 30 mg/kg vs IV 3 mg/kg, serum by LC/MS/MS
Listed below: bioavailability values for each entry.
Give the value, in units of %, as a plain number.

- molecule: "Cc1c(C(=O)C(N)=O)c2c(OCC(=O)O)nccc2n1Cc1ccccc1 [ILY-II-1]"
  observed: 11
- molecule: "Cc1c(C(=O)C(N)=O)c2c(OCC(=O)O)cccc2n1CCCCCCCCCCCCSCCCCCCCCSCCCCCCCCCCCCn1c(C)c(C(=O)C(N)=O)c2c(OCC(=O)O)cccc21 [ILY-V-26]"
  observed: 0

Kindly consider the entry below.
Identify measured bioavailability corresponding to Cc1c(C(=O)C(N)=O)c2c(OCC(=O)NS(C)(=O)=O)nccc2n1Cc1ccccc1-c1ccccc1 [ILY-II-14]
14.7

This collection of values is drawn from patent US20070135383A1.
